Molecular target: NQO1 (Homo sapiens)
Sequence (P15559 whole entry): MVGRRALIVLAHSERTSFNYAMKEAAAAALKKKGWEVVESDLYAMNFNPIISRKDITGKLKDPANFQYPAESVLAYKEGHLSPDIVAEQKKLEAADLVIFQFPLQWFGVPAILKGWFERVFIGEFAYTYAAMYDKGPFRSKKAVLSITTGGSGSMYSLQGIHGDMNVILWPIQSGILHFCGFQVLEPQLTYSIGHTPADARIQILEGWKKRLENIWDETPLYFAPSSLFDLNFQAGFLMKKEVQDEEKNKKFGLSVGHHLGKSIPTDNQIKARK
Experiment: In vitro reductase enzyme activity assay, NQO1
Details: purified recombinant protein
observed property: IC50 (nM)
Give the number; nM is assumed, so skip it.

Record for Cc1onc(-c2ccccc2)c1C(=O)Nc1ncc([N+](=O)[O-])s1 [MNPC] under target or system NQO1 (Homo sapiens): IC50 reported as 926

---

Target: GSTP1 (Homo sapiens, UniProt P09211)
Sequence (P09211 whole entry): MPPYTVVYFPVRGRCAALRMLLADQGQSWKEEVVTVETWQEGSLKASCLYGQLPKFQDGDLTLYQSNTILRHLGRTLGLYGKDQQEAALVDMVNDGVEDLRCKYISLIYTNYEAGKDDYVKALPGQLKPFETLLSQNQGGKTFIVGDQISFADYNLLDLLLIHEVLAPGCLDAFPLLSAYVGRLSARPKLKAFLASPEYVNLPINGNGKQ
observed property: Kd (nM)
Write down the numeric answer in nM and omit the unit.

The observed Kd for Cc1onc(-c2ccccc2)c1C(=O)Nc1ncc([N+](=O)[O-])s1 [MNPC] when tested with GSTP1 (Homo sapiens, UniProt P09211) stands at 89.6
